Read-out: Monocyte Chemoattractant Protein-1 (MCP1), CCL2 (gene 6347)
Experiment: BSK_SAg_MCP1: BioMAP Diversity Plus: SAg Assay for Monocyte Chemoattractant Protein-1 (MCP1) Biomarker Activity (AID 2283090)
Details: primary human HUVEC with PBMC; actives raise or lower the signal
Calls of active or inactive are those of the source. Rule for the calls: active = hit-call score of the fitted dose curve at least 0.9, where 1 is the maximum; inactive = score below 0.9.
Lab note: assign the record to one of True = active, False = inactive

[in] // return assay outcome for CC(C)NC(=O)N1CC(=O)N(c2cc(Cl)cc(Cl)c2)C1=O
[out] False

[in] // return assay outcome for Cn1c(-c2ccccc2)cc(-c2ccccc2)[n+]1C
[out] True

[in] // return assay outcome for COCC(C)N(C(=O)CCl)c1c(C)csc1C (stereo unspecified)
[out] False

[in] // return assay outcome for CCSC(=O)N1CCCCCC1
[out] False

[in] // return assay outcome for N#CN=C1SCCN1Cc1ccc(Cl)nc1
[out] False

Turning now to a further compound:
[in] // return assay outcome for Cc1c(COC(=O)[C@@H]2[C@H](/C=C(\Cl)C(F)(F)F)C2(C)C)cccc1-c1ccccc1
[out] False

###

Read-out: Phosphatase and tensin (PTEN), PTEN (gene 5728)
Experiment: LTEA_HepaRG_PTEN: Life Technologies and Expression Analysis (LTEA) Assay for Phosphatase and tensin (PTEN) using HepaRG (AID 2283523)
Conditions: mRNA level, 48 h; actives raise or lower the signal
Experimental: LTEA_HepaRG is a cell based, multiplexed-readout assay that uses HepaRG, a human liver cell line, with measurements taken at 48 hours after chemical dosing on a 96-well plate.LTEA_HepaRG_PTEN is one of 102 assay component(s) measured in the LTEA HepaRG cell culture assay. It is a marker of Cell proliferation, survival, death.Data from the assay component LTEA_HepaRG_PTEN was analyzed into 1 endpoint. […]
Active and inactive are the calls of the source. Rule for the calls: active = hit-call score of the fitted dose curve at least 0.9, where 1 is the maximum; inactive = score below 0.9.
Lab note: assign the record to one of True for active, False for inactive

[in] // return assay outcome for COC(=O)c1c(C(F)F)nc(C(F)(F)F)c(C2=NCCS2)c1CC(C)C
[out] False

[in] // return assay outcome for CCOc1nc(C(Cl)(Cl)Cl)ns1
[out] True

[in] // return assay outcome for Cn1c(-c2ccccc2)cc(-c2ccccc2)[n+]1C
[out] True

---
[in] // return assay outcome for COP(=S)(OC)Oc1ccc([N+](=O)[O-])c(C)c1
[out] False

[in] // return assay outcome for Clc1nc(Cl)nc(Nc2ccccc2Cl)n1
[out] False

[in] // return assay outcome for Cc1nc(N(C)C)nc(OC(=O)N(C)C)c1C
[out] False

###

Experiment: APR_HepG2_MitoticArrest_72hr: Apredica 72-hour HepG2 Assay for Mitotic Arrest (AID 2282918)
Details: high-content imaging, actives raise or lower the signal
Description: APR_HepG2_72hr is a cell-based, multiplexed-readout assay that uses HepG2, a human liver cell line, with measurements taken at 72 hours after chemical dosing in a 384-well plate.APR_HepG2_MitoticArrest_72hr is one of 10 assay component(s) measured or calculated from the APR_HepG2_72hr assay. […] This assay endpoint, APR_HepG2_MitoticArrest_72hr, was analyzed with bidirectional fitting relative to DMSO as the negative control and baseline of activity. […]
Activity calls are given as the source filed them. Rule for the calls: active = hit-call score of the fitted dose curve at least 0.9, where 1 is the maximum; inactive = score below 0.9.
Lab note: assign the record to one of active, inactive

Past entries and their recorded results:
[in] // return assay outcome for CC1(C)CON(Cc2ccccc2Cl)C1=O
[out] inactive

[in] // return assay outcome for COP(=S)(OC)SCn1nnc2ccccc2c1=O
[out] inactive

[in] // return assay outcome for Cc1cc(C)nc(Nc2ccccc2)n1
[out] inactive

---
[in] // return assay outcome for Nc1cnn(-c2ccccc2)c(=O)c1Cl
[out] inactive

[in] // return assay outcome for Clc1nc(Cl)nc(Nc2ccccc2Cl)n1
[out] inactive

[in] // return assay outcome for COCC(=O)N(c1c(C)cccc1C)C(C)C(=O)OC (stereo not drawn)
[out] inactive

[in] // return assay outcome for O=C(O)c1c(Cl)ccc2cc(Cl)cnc12
[out] inactive

[in] // return assay outcome for COCC(C)N(C(=O)CCl)c1c(C)csc1C (stereo not drawn)
[out] active

[in] // return assay outcome for CCOC(=O)C(C)OC(=O)c1cc(Oc2ccc(C(F)(F)F)cc2Cl)ccc1[N+](=O)[O-] (stereo not drawn)
[out] inactive

[in] // return assay outcome for N#CN=C1SCCN1Cc1ccc(Cl)nc1
[out] inactive

[in] // return assay outcome for O=C1C2CC=CCC2C(=O)N1SC(Cl)(Cl)Cl (stereo not drawn)
[out] active

[in] // return assay outcome for Nc1c(Cl)c(F)nc(OCC(=O)O)c1Cl
[out] inactive

[in] // return assay outcome for CCC(C)n1c(=O)[nH]c(C)c(Br)c1=O (stereo not drawn)
[out] inactive

// data source = PubChem BioAssay (EPA / NIEHS)
